Recorded values, source the supplement of paper PMC12042874.

- Experiment Notes: amyloid nucleation score (Sup35N fusion, yeast selection) (log enrichment); library NNK1; higher = more nucleation; inactive = no reads after selection;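 also: zero at mode of non-aggregating sequences after 7 days selection at 30°C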
Readout Name: amyloid nucleation score

SLSRMVGCTTVF :: inactive
LWLWHELHAIYMGMRGVSVL :: inactive
NVVWAYSMAFMTSAFSVNYP :: inactive

###

- Experiment Notes: amyloid nucleation score (Sup35N fusion, yeast selection) (log enrichment); library NNK1; higher = more nucleation; inactive = no reads after selection
Readout Name: amyloid nucleation score
Give bare numbers.

Take a look at these entries with their results.
GDNACLLSSIEDALDSVQVL :: 0.99
SDNYVKAYVRVRRVMTKGGS :: -0.579
VWFVVGGGE :: 1.7
SEKGCYYIGSLTGR :: 0.184

Then there is this substance:
Need amyloid nucleation score, item LKCFRLS
0.327

###

Could you please report measured amyloid nucleation score for the items listed next?
- Experiment Notes: amyloid nucleation score (Sup35N fusion, yeast selection) (log enrichment); library NNK3; higher = more nucleation; inactive = no reads after selection
Numbers only.

MEMLVVIRIARRMYDGGCLS :: -0.423

Then there is this sequence:
Need amyloid nucleation score, item SWNVFFFSGFRVPYYALTGV
0.254

###

- Experiment Notes: amyloid nucleation score (Sup35N fusion, yeast selection) (log enrichment); library NNK1; higher = more nucleation; inactive = no reads after selection
Binned amyloid nucleation score; ranges: low band: < 0.09; middle band: ≥ 0.09 and < 1; high band: ≥ 1

Check out these entries, answers already filled in.
VGLINHYSSSNMLG :: middle band
VSGVYLRFRASCRSY :: low band
VRSNGYHVMFNTINRVWDTV :: middle band

Class label required: VDVAVVDTNLSLNMACKGWT
high band

Class label required: NYLGRVLFFYNWFDKQYRSK
high band

Class label required: HFHNSCLYIGRVHIGHTLGV
high band

###

- Experiment Notes: amyloid nucleation score (Sup35N fusion, yeast selection) (log enrichment); library NNK2; higher = more nucleation; inactive = no reads after selection
Assign class by amyloid nucleation score: not lower than 0.8 means satisfied; lower than 0.8 means not satisfied.

Has SIGFPSMSMRSWILFTSLYR a recorded amyloid nucleation score greater than or equal to 0.8?
not satisfied

Has TADISLYLRHST a recorded amyloid nucleation score greater than or equal to 0.8?
satisfied

Has TMGYEFMQILLDLRNLSCSY a recorded amyloid nucleation score greater than or equal to 0.8?
satisfied

Has DSRCDRAPDCGMNHCIYILC a recorded amyloid nucleation score greater than or equal to 0.8?
satisfied

Has EYHFCTWFRVDIPFVFHDVV a recorded amyloid nucleation score greater than or equal to 0.8?
not satisfied

###

- Experiment Notes: amyloid nucleation score (Sup35N fusion, yeast selection) (log enrichment); library NNK2; higher = more nucleation; inactive = no reads after selection
Binned amyloid nucleation score; ranges: lower = under -0.2, middle = from -0.2 up to 0.3, upper = 0.3 and over

LACVKMFSGVFV :: middle
HNLFNHIADNQGRGIEEKLT :: middle
LVKVHSISMLINSYLGEFCL :: middle
YHKAIFFGF :: lower
QRQDDSVFHDVSHLGQGSSK :: upper

Class label required: MASSPSVSIIKLFFGVEGLS
lower

Class label required: SKFWVARRCFASHLK
lower

Class label required: RLRKFESLLICDRISIIVRY
upper

Class label required: GVMRSCCEIWTFSIVFRMYT
upper

Class label required: IDVLTQLNSFRMNFYVSANI
lower

Class label required: GFIVRMDTMLSSALASYCRL
lower

Class label required: IFWYRCNINSGCEQVVYWGN
upper
